procedure_details: solvent given as SMILES
run_conditions: in CCCCCC
Classify: YES when emission maximum is strictly less than 500 nm; NO when emission maximum is not.

In the record for CC1=CC(C)=[N+]2C1=C(c1ccc3cccnc3n1)c1c(C)cc(C)n1[B-]2(F)F , is emission maximum less than 500 nm? NO

Input O=C1c2cc(-n3c4ccccc4c4ccccc43)ccc2S(=O)(=O)c2ccc(-n3c4ccccc4c4ccccc43)cc21 ; condition: emission maximum strictly below 500 nm. Does it hold? YES

Input c1ccc(-c2nc(-c3ccccc3)nc(-c3cc(-n4c5ccccc5c5ncccc54)c(-n4c5ccccc5c5ccccc54)c(-n4c5ccccc5c5ncccc54)c3)n2)cc1 ; condition: emission maximum strictly below 500 nm. Does it hold? YES

For O=C1C(=c2c(=O)c3c4ccccc4cc4cc5ccccc5c2c43)C(=O)c2ccccc21 , is the recorded emission maximum below the cut-off of 500 nm? NO

Is emission maximum strictly under 500 nm for the entry O=S(=O)(c1ccccc1)c1ccc(-c2ccc3c(c2)c2cc(-c4ccc(S(=O)(=O)c5ccccc5)cc4)ccc2n3-c2ccccc2)cc1 ? YES

Consider C1=C(c2ccc(-c3cccs3)s2)CCC(c2ccccc2)C1 (configuration not stated) . Does its emission maximum lie strictly below 500 nm? YES

Determine if CCc1c(C)c2n(c1C)[B-](F)(F)[N+]1=C(NCc3ccc(OC)cc3)C=CC1=C2C shows emission maximum strictly lower than 500 nm. NO

Strictly below 500 nm in emission maximum? N#Cc1ccc(C#Cc2ccc3ccc4ccc(C#Cc5ccc(C#N)cc5)c5ccc2c3c45)cc1 YES

# check: emission maximum < 500 nm for CN1C(=O)c2cccc3c(-n4c5ccccc5c5ccccc54)ccc(c23)C1=O YES

Please state whether emission maximum is below 500 nm for CCC1(CC)c2cc(B(c3c(C)cc(C)cc3C)c3c(C)cc(C)cc3C)ccc2-c2ccc(N(c3ccccc3)c3ccccc3)cc21 YES

Please determine if N#C/C(=C\c1cc(/C=C(\C#N)c2ccc(C(F)(F)F)cc2)c(-c2ccc(N(c3ccccc3)c3ccccc3)cc2)cc1-c1ccc(N(c2ccccc2)c2ccccc2)cc1)c1ccc(C(F)(F)F)cc1 is below 500 nm in terms of emission maximum. YES

State whether 500 nm exceeds emission maximum recorded for c1cc2ccc3ccc(-n4c5ccccc5c5ccccc54)c4ccc(c1)c2c34 . YES

In the record for COC(=O)C(Cc1ccc2oc(-c3ccc(N(c4ccccc4)c4ccccc4)cc3)nc2c1)NC(=O)OC(C)(C)C (configuration not stated) , is emission maximum less than 500 nm? YES

Say whether its emission maximum is strictly beneath 500 nm. Entry: O=C1c2ccccc2C(=O)N1c1ccc(Cn2cncn2)cc1 YES

----------
procedure_details: solvent given as SMILES
run_conditions: in CC#N
For each entry below, report its emission maximum value.
Lab book: enter the figure in nm, no units written.

Quick check: emission maximum of O=S1(=O)C2=C(c3ccc(N(c4ccccc4)c4ccccc4)cc31)C1(C3=C(c4ccccc41)S(=O)(=O)c1cc(N(c4ccccc4)c4ccccc4)ccc13)c1ccccc12 ? 598

Item under review: C[Si](C)(c1c2ccccc2cc2ccccc12)[Si](C)(C)c1c2ccccc2cc2ccccc12 . Reported emission maximum? 425

Give the measured emission maximum of CC(C)(C)c1cc2ccc3cc(C(C)(C)C)cc4c3c2c(c1)c(=O)n1c4nc2c3cc(C(C)(C)C)cc4ccc5cc(C(C)(C)C)cc(c5c43)c21 . 551

Which emission maximum is listed for c1cc2c3c(cccc3c1)NC(c1ccc3ccc4cccc5ccc1c3c45)N2 ? 458

Fill in the blank: the reported emission maximum of COc1cc(OC)cc(C2=[O+][B-](F)(F)OC(c3ccc4cc(OC)ccc4c3)=C2)c1 is ____. 550.5

# emission maximum lookup, item CN(C)c1ccc(C2=Nc3sc4cc(Cl)ccc4[n+]3[B-](F)(F)O2)cc1 491

Need emission maximum of CN(C)c1ccc(C(=O)Nc2cccc(Br)c2)cc1 , thanks. 496

Looking for the measured emission maximum of FC(F)(F)c1ccc(/C=C/c2nc(/C=C/c3ccc(N(c4ccccc4)c4ccccc4)cc3)cc(/C=C/c3ccc(N(c4ccccc4)c4ccccc4)cc3)n2)cc1 , can you help? 600

Suppose we examine the compound C[n+]1ccc2c(ccc3c[n+](C)ccc32)c1 ; what emission maximum value has been reported? 407

Measured values drawn from the Deep4Chem optical property database for this set.
